- TEST_TARGET: T1, human BCMA expressed on cells (human, UniProt Q02223 1-184)
- T1 construct: the cell line is named under assay; also called wildtype human BCMA
- T1 sequence: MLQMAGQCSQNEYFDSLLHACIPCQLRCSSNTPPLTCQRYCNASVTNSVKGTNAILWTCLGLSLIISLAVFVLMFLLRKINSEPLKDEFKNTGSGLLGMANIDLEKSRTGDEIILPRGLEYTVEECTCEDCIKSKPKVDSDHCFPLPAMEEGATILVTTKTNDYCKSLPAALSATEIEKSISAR
- MEASUREMENT_NOTES: flow cytometry, fixed RPMI 8226 cells (BCMA+, TACI+: the cells carry both targets)
OUTCOME_MEASURE: pEC50
pEC50 here: minus log base 10 of the concentration, concentration in moles per litre.

As a guide, the following entries are already answered.
1C8-610 hIgG1 (antibody, V domains shown, also called [93]; hu1C8-610) VH: QVQLVQSGAEVKKPGASVKVSCKASGYTFTNYVMFWVKQKPGQGLEWMGYITPYNDGTKYAQKFQGKVTMTSDKSTSTVYMELSSLTSEDTAVYYCARYDYEGSFDYWGQGTLVTVSS VL: DIQMTQSPSSLSASVGDRVTITCRASQDISNYLNWYQQKPGKAPKLLMRYTSRFHSGVPSRFSGSGSGTDFTLTISSLEQEDFATYYCQQGNTFPPTSGGGTKVEIKR : 9.87
1C8-507 hIgG1 (antibody, V domains shown, also called [92]; hu1C8-507) VH: QVQLVQSGAEVKKPGASVKVSCKASGYTFRNYVMHWVKQKPGQGLEWMGWILPYNDGTKYAQKFQGKVTMTSDKSTSTVYMELSSLTSEDTAVYYCARYDYEGSFDYWGQGTLVTVSS VL: DIQMTQSPSSLSASVGDRVTITCRASQDISNYLNWYQQKPGKAPKLLMRYTSLLHSGVPSRFSGSGSGTDFTLTISSLEQEDFATYYCQQGNTFPPTFGGGTKVEIKR : 9.87

# next binder below
Incoming: // pEC50 lookup, key: 1C8-403 hIgG1 (antibody, V domains shown, also called [91]; hu1C8-403) VH: QVQLVQSGAEVKKPGASVKVSCKASGYTFTNYVMHWVKQKPGQGLEWMGYILPYNDGTKYAQKFQGKVTMTSDKSTSTVYMELSSLTSEDTAVYYCARYDWEGSFDYWGQGTLVTVSS VL: DIQMTQSPSSLSASVGDRVTITCRASSDISNYLNWYQQKPGKAPKLLMCYTSRLHSGVPSRFSGSGSGTDFTLTISSLEQEDFATYYCQQGNTFPPTFGGGTKVEIKR
Outgoing: 9.77
